tested on: rodent lifetime carcinogenesis bioassay, tumor incidence TD50; assay: carcinogenic potency in animals, long-term in vivo studies, CPDB compilation (AID 1745844); conditions: mouse; strain B6C3F1; males; by gavage; site: any site (literature study); lesion: several types; types named in the paper; dosed 103 weeks; study length 104 weeks
Activity calls are given as the source filed them. How the calls were made is not given here.
TD50 listing for selected molecules.
Quantity kind: TD50

Molecule: O=P(O)(O)O
Quantity kind: TD50
Result: 11600 mg/kg/day

Molecule: O=CCC=O
Quantity kind: TD50
Result: 217 mg/kg/day (inactive)

Molecule: S=[Se]
Quantity kind: TD50
Result: 735 mg/kg/day (inactive)

Molecule: ClCC(Cl)(Cl)Cl
Quantity kind: TD50
Result: 97.9 mg/kg/day

Molecule: Oc1ccc(O)cc1
Quantity kind: TD50
Result: 497 mg/kg/day (inactive)

Molecule: CCCN(CCC)S(=O)(=O)c1ccc(C(=O)O)cc1
Quantity kind: TD50
Result: 276 mg/kg/day

Molecule: CN(C)c1ccccc1
Quantity kind: TD50
Result: 489 mg/kg/day (inactive)

Molecule: CC(=O)OC1CC(C)OC(C)O1 (stereo not drawn)
Quantity kind: TD50
Result: 1820 mg/kg/day

Molecule: c1cc(OCC2CO2)cc(OCC2CO2)c1 (stereo not drawn)
Quantity kind: TD50
Result: 36.6 mg/kg/day

Molecule: C=CC1CC=CCC1 (stereo not drawn)
Quantity kind: TD50
Result: 307 mg/kg/day

Molecule: S=c1[nH]c2ccccc2s1
Quantity kind: TD50
Result: 3330 mg/kg/day (inactive)

Molecule: c1ccc2occc2c1
Quantity kind: TD50
Result: 54.3 mg/kg/day

Molecule: ClC(Cl)C(Cl)(Cl)Cl
Quantity kind: TD50
Result: 85.6 mg/kg/day

* * *

test system: rodent lifetime carcinogenesis bioassay, tumor incidence TD50; test: carcinogenic potency in animals, long-term in vivo studies, CPDB compilation (AID 1745844); conditions: rat; strain Fischer 344; males; by gavage; site: any site (literature study); lesion: several types; types named in the paper; dosed 103 weeks; study length 104 weeks
Activity calls are given as the source filed them. No rule for the calls is given here.
Reported TD50 values for a set of compounds

Compound: CC(I)C1OCC(CO)O1 (stereo not drawn)
TD50: 52.1 mg/kg/day
//
Compound: C[C@H](CCC(=O)O)[C@H]1CC[C@H]2[C@@H]3CC[C@@H]4C[C@H](O)CC[C@]4(C)[C@H]3CC[C@]12C
TD50: 501 mg/kg/day (inactive)
//
Compound: c1cc(OCC2CO2)cc(OCC2CO2)c1 (stereo not drawn)
TD50: 4.61 mg/kg/day
//
Compound: c1ccoc1
TD50: 1.96 mg/kg/day
//
Compound: CCCCC(CC)COP(=O)(OCC(CC)CCCC)OCC(CC)CCCC (stereo not drawn)
TD50: 14200 mg/kg/day
//
Compound: Nc1ccc(O)c(N)c1
TD50: 543 mg/kg/day (inactive)
//
Compound: [Cl][Hg][Cl]
TD50: 1.04 mg/kg/day
//
Compound: c1ccc2occc2c1
TD50: 22.5 mg/kg/day

* * *

Catalogue of molecules with associated TD50
tested on: rodent lifetime carcinogenesis bioassay, tumor incidence TD50; experiment: carcinogenic potency in animals, long-term in vivo studies, CPDB compilation (AID 1745844); conditions: mouse; strain B6C3F1; males; oral dosing; site: lung; lesion: adenoma; dosed 76 weeks; study length 76 weeks
Active and inactive are the calls of the source. How the calls were made is not given here.

Molecule: Clc1ccc(C(c2ccccc2Cl)C(Cl)Cl)cc1 (stereo not drawn)
TD50: 467 mg/kg/day
//
Molecule: CC(C)OC(=O)COc1ccc(Cl)cc1Cl
TD50: 21.3 mg/kg/day (inactive)
//
Molecule: OC[C@@H](O)[C@H]1O[C@@H]2O[C@H](C(Cl)(Cl)Cl)O[C@@H]2[C@H]1O
TD50: 11.2 mg/kg/day (inactive)

* * *

test system: rodent lifetime carcinogenesis bioassay, tumor incidence TD50; assay: carcinogenic potency in animals, long-term in vivo studies, CPDB compilation (AID 1745844); conditions: mouse; strain B6C3F1; females; by gavage; site: any site (literature study); lesion: several types; types named in the paper; dosed 104 weeks; study length 104 weeks
# TD50 per entry

Compound: Cc1cn([C@H]2C[C@H](N=[N+]=[N-])[C@@H](CO)O2)c(=O)[nH]c1=O
TD50 [mg/kg/day]: 221
--
Compound: COC1COC(OC2COC(OC3COC(OC4COC(OC)C(OS(=O)(=O)O)C4OS(=O)(=O)O)C(OC4OC(C(=O)O)C(OC)C(OS(=O)(=O)O)C4OS(=O)(=O)O)C3OS(=O)(=O)O)C(OS(=O)(=O)O)C2OS(=O)(=O)O)C(OS(=O)(=O)O)C1OS(=O)(=O)O (stereo not drawn)
TD50 [mg/kg/day]: 660
--
Compound: O=P(OCCCl)(OCCCl)OCCCl
TD50 [mg/kg/day]: 610

* * *

tested on: rodent lifetime carcinogenesis bioassay, tumor incidence TD50; experiment: carcinogenic potency in animals, long-term in vivo studies, CPDB compilation (AID 1745844); details: rat; strain Fischer 344; females; by gavage; site: any site (literature study); lesion: several types; types named in the paper; dosed 103 weeks; study length 104 weeks
Active and inactive are the calls of the source. How the calls were made is not given here.

Compound: O=[N+]([O-])c1ccc(Nc2ccc(Nc3ccccc3)c(S(=O)(=O)O)c2)c([N+](=O)[O-])c1
TD50: 361 mg/kg/day
--
Compound: C=CC1CC=CCC1 (stereo not drawn)
TD50: 305 mg/kg/day
--
Compound: CCCCC(CC)COP(=O)(OCC(CC)CCCC)OCC(CC)CCCC (stereo not drawn)
TD50: 230000 mg/kg/day (inactive)

* * *

test system: rodent lifetime carcinogenesis bioassay, tumor incidence TD50; test: carcinogenic potency in animals, long-term in vivo studies, CPDB compilation (AID 1745844); conditions: rat; strain Sprague-Dawley; females; in feed; site: mammary gland; lesion: adenocarcinoma; dosed 46 weeks; study length 66 weeks
Quantity kind: TD50

Compound: O=C1NC(c2ccc([N+](=O)[O-])s2)Nc2ccccc21 (stereo unspecified)
Quantity kind: TD50
Result: 13.3 mg/kg/day

Compound: CC(=O)NCc1nc(-c2ccc([N+](=O)[O-])o2)no1
Quantity kind: TD50
Result: 10.3 mg/kg/day

Compound: NNc1nc(-c2ccc([N+](=O)[O-])o2)cs1
Quantity kind: TD50
Result: 10.9 mg/kg/day

Compound: Nc1nc(N)nc(-c2ccc([N+](=O)[O-])o2)n1
Quantity kind: TD50
Result: 4.49 mg/kg/day

Compound: O=C1N(CCO)CCN1N=Cc1ccc([N+](=O)[O-])o1
Quantity kind: TD50
Result: 16.7 mg/kg/day

Compound: O=c1[nH]nc(-c2ccc([N+](=O)[O-])o2)o1
Quantity kind: TD50
Result: 31.2 mg/kg/day

* * *

tested on: rodent lifetime carcinogenesis bioassay, tumor incidence TD50; experiment: carcinogenic potency in animals, long-term in vivo studies, CPDB compilation (AID 1745844); settings: mouse; strain B6C3F1; males; in feed; site: liver; lesion: hepatocellular adenoma + hepatocellular carcinoma + neoplastic nodule; dosed 103 weeks; study length 104 weeks

Compound: O=P(OCC(Br)CBr)(OCC(Br)CBr)OCC(Br)CBr (centres undefined)
TD50 [mg/kg/day]: 172

Compound: c1ccc(Nc2ccc3ccccc3c2)cc1
TD50 [mg/kg/day]: 1350

Compound: C=CCc1ccc(O)c(OC)c1
TD50 [mg/kg/day]: 451

Compound: OCCO
TD50 [mg/kg/day]: 48100

* * *

system: rodent lifetime carcinogenesis bioassay, tumor incidence TD50; assay: carcinogenic potency in animals, long-term in vivo studies, CPDB compilation (AID 1745844); settings: mouse; strain B6C3F1; females; in feed; site: liver; lesion: hepatocellular adenoma + hepatocellular carcinoma + neoplastic nodule; dosed 103 weeks; study length 105 weeks
In plain terms, low TD50, meaning strictly below 100 mg/kg/day, gives 1, and everything else gives -1.

Item smiles: Cc1cc(N=Nc2c(O)ccc3ccccc23)c(S(=O)(=O)O)cc1Cl
Category: -1

Item smiles: O=C1CN(N=Cc2ccc([N+](=O)[O-])o2)C(=O)N1
Category: -1

Item smiles: N=C1C=CC(=C(c2ccc(N)cc2)c2ccc(N)cc2)C=C1
Category: 1

Item smiles: Cc1c(N)cccc1N
Category: -1

Item smiles: CC
Category: -1

Item smiles: Nc1cccc2c(N)cccc12
Category: -1

* * *

tested on: rodent lifetime carcinogenesis bioassay, tumor incidence TD50; assay: carcinogenic potency in animals, long-term in vivo studies, CPDB compilation (AID 1745844); conditions: rat; strain Fischer 344; males; by gavage; site: any site (literature study); lesion: several types; types named in the paper; dosed 103 weeks; study length 104 weeks
Active and inactive are the calls of the source. No rule for the calls is given here.
Listed next: entries and their corresponding TD50.

Compound: CCCCCl
TD50: 40.5 mg/kg/day
//
Compound: CC(CCl)OC(C)CCl (centres undefined)
TD50: 101 mg/kg/day (inactive)
//
Compound: Clc1ccccc1
TD50: 190 mg/kg/day
//
Compound: CC(O)c1ccccc1 (centres undefined)
TD50: 88.6 mg/kg/day
//
Compound: O=CCC=O
TD50: 41.8 mg/kg/day
//
Compound: CCCCCCc1ccc(O)cc1O
TD50: 615 mg/kg/day (inactive)
//
Compound: OC[P+](CO)(CO)CO
TD50: 14.7 mg/kg/day
//
Compound: CN(C)c1ccccc1
TD50: 93.2 mg/kg/day
//
Compound: Oc1ccc(O)cc1
TD50: 41.8 mg/kg/day

Source: PubChem BioAssay AID1745844
